The reported numbers originate from paper PMC5540273.

system: BMX; settings: concentration: 1 μM,replicates: in singlicate; n = 1;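 note: KINOMEscan kinase panel screen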
Quantity measured: %Inh
Write the quantity with the unit trailing the number.

[[record]]
compound = "Cn1ccc2ncnc(Oc3ccc(NC(=O)Nc4cncc(C(F)(F)F)c4)c(Cl)c3)c21"
measurement = "0%"


Q: Quick check: %Inh of O=C(Nc1cccc(Oc2ccc3nccn3n2)c1)Nc1cccc(C(F)(F)F)c1 ?
Result: 0%

Q: Quick check: %Inh of COc1cccc(CNC(=O)NC2CCN(c3ccnc(Nc4cc(OC)c(OC)c(OC)c4)n3)C2)c1 (centres unmarked) ?
Result: 23%

Q: Quick check: %Inh of Cc1ccc2c(-c3ccnc(Nc4ccc(C(F)(F)F)cc4)n3)cnn2n1 ?
Result: 0%

Q: Quick check: %Inh of Cc1nnc(-c2ccc3occ(-c4ccc(S(C)=O)cc4)c3n2)o1 (centres unmarked) ?
Result: 0%

###

test system: BMPR2; conditions: concentration: 1 μM,replicates: in singlicate; n = 1
Quantity measured: %Inh (%)
Numbers only here, please. The scale is %.

Sample answers from the record:
[[record]]
compound = "CCn1c(-c2nonc2N)nc2cncc(CNC3CCNCC3)c21.Cl"
readout_units = "%"
measurement = 17

[[record]]
compound = "Cc1cccc(-c2nc(Nc3ccncc3)c3sccc3n2)n1"
readout_units = "%"
measurement = 37

[[record]]
compound = "CC(C)c1nc(-c2cccc(NS(=O)(=O)c3ccccc3)c2)c(-c2ccnc(Nc3ccc4c(c3)CN(C)CC4)n2)s1"
readout_units = "%"
measurement = 9

[[record]]
compound = "COc1cccc(CNC(=O)NC2CCN(c3ccnc(Nc4cc(OC)c(OC)c(OC)c4)n3)C2)c1 (centres unmarked)"
readout_units = "%"
measurement = 23

[[record]]
compound = "CCNCC(Cc1ccccc1)NC(=O)c1cc(Br)c(-c2ccnc3[nH]ccc23)s1.Cl.Cl (centres unmarked)"
readout_units = "%"
measurement = 0

[[record]]
compound = "NC(=O)Nc1sc(-c2ccc(F)cc2)cc1C(N)=O"
readout_units = "%"
measurement = 78

[[record]]
compound = "C[C@@H]1CNc2c(sc3ccc4nc(-c5ccc(O)cc5)ccc4c23)C(=O)N1"
readout_units = "%"
measurement = 7


Q: Quick check: %Inh of CC(C(=O)NC1CCN(c2ccnc(Nc3ccc(F)cc3)n2)C1)c1ccc(Cl)cc1 (centres unmarked) ?
Result: 0

###

test system: TSSK1B; conditions: concentration: 1 μM,replicates: in singlicate; n = 1
Quantity measured: %Inh (%)
Numbers only here, please. The scale is %.

Sample answers from the record:
[[record]]
mol_smiles = "Cc1ccc(Nc2ccnc(Nc3ccc4c(c3)CS(=O)(=O)C4)n2)cc1O.Cl"
system_tested = "TSSK1B"
quantity_measured = "%Inh"
measurement = 1

[[record]]
mol_smiles = "Cc1ccn2nc(-c3ccc(F)cc3)c(-c3ccncc3)c2c1.Cl"
system_tested = "TSSK1B"
quantity_measured = "%Inh"
measurement = 0

[[record]]
mol_smiles = "CC(C)c1nc(-c2cccc(NS(=O)(=O)c3ccccc3)c2)c(-c2ccnc(Nc3ccc4c(c3)CN(C)CC4)n2)s1"
system_tested = "TSSK1B"
quantity_measured = "%Inh"
measurement = 16


Q: Which measured %Inh belongs to COc1cc2ncn(-c3cc(OCC4CCCCC4)c(C(N)=O)s3)c2cc1OC , tested on TSSK1B?
Result: 0

###

test system: FES; conditions: concentration: 1 μM,replicates: in singlicate; n = 1
Quantity measured: %Inh (%)
Numbers only here, please. The scale is %.

[[record]]
compound = "O=C(Nc1cccc(C(F)(F)F)c1)c1cccc(Oc2ccc3nccn3n2)c1"
system_tested = "FES"
measurement = 0

[[record]]
compound = "C[C@@H](Oc1cc(-n2cnc3cc(-c4ccncc4)ccc32)sc1C(N)=O)c1ccccc1Cl"
system_tested = "FES"
measurement = 18

[[record]]
compound = "Nc1nccc(-c2ccc3c(N)n[nH]c3c2)n1"
system_tested = "FES"
measurement = 0

[[record]]
compound = "NC(=O)Nc1sc(-c2ccc(F)cc2)cc1C(N)=O"
system_tested = "FES"
measurement = 11

[[record]]
compound = "C[C@@H](Oc1cc(-n2cnc3cc(-c4cnn(C)c4)ccc32)sc1C(N)=O)c1ccccc1Cl"
system_tested = "FES"
measurement = 18


Q: Quick check: %Inh of NC(=O)c1ccc(-c2cc3ncnc(SCC(=O)O)c3s2)cc1 ?
Result: 16

Q: Quick check: %Inh of COc1ccc(Nc2nccc(N3CCC(NC(=O)c4cccc(C#N)c4)C3)n2)cc1 (stereo not drawn) ?
Result: 0

Q: Quick check: %Inh of CN(c1ccccc1CNc1nc(Nc2ccc3c(c2)CC(=O)N3)ncc1C(F)(F)F)S(C)(=O)=O ?
Result: 70

Q: Quick check: %Inh of COc1cccc(OC)c1C(=O)Nc1cccc(-c2nn3ccccc3c2-c2ccnc(Nc3cccc(F)c3)n2)c1 ?
Result: 20
